Reference for the values: ChEMBL document CHEMBL1132468

- MEASUREMENT TARGET: Gastrin/cholecystokinin type B receptor (Rattus norvegicus, UniProt P30553)
- ASSAY EXPLANATION: Binding affinity by competitive inhibition of the radioligand [3H]pCCK-8 at Cholecystokinin type B receptor from rat cerebral cortex membrane
- Type: tissue-based

[
  {
    "MOLECULE": "O=C(Cc1c[nH]c2ccccc12)N[C@H]1CCCN2C(=O)N(Cc3ccccc3)C(=O)C[C@@H]12.O=C(N[C@@H]1CCCN2C(=O)N(Cc3ccccc3)C(=O)C[C@H]12)c1c[nH]c2ccccc12",
    "IC50": "> 10 µM"
  },
  {
    "MOLECULE": "CC(C)(C)OC(=O)N1Cc2[nH]c3ccccc3c2CC1C(=O)N[C@@H]1CCCN2C(=O)N(Cc3ccccc3)C(=O)C[C@H]12 (stereo not given in full)",
    "IC50": "> 10 µM"
  },
  {
    "MOLECULE": "CC(C)(C)OC(=O)N[C@@H](Cc1ccccc1)C(=O)N[C@@H]1CCCN2C(=O)N(Cc3ccccc3)C(=O)C[C@H]12",
    "IC50": "> 10 µM"
  },
  {
    "MOLECULE": "O=C(N[C@H]1CCCN2C(=O)N(Cc3ccccc3)C(=O)C[C@@H]12)[C@H](Cc1c[nH]c2ccccc12)NC(=O)C12CC3CC(CC(C3)C1)C2",
    "IC50": "4.39 µM"
  },
  {
    "MOLECULE": "N#C[C@@H](N[C@@H]1CCCN2C(=O)N(Cc3ccccc3)C(=O)C[C@H]12)[C@H](Cc1c[nH]c2ccccc12)NC(=O)OCc1ccccc1",
    "IC50": "> 10 µM"
  }
]

###

- MEASUREMENT TARGET: Gastrin/cholecystokinin type B receptor (Rattus norvegicus, UniProt P30553)
- Sequence (P30553 whole entry): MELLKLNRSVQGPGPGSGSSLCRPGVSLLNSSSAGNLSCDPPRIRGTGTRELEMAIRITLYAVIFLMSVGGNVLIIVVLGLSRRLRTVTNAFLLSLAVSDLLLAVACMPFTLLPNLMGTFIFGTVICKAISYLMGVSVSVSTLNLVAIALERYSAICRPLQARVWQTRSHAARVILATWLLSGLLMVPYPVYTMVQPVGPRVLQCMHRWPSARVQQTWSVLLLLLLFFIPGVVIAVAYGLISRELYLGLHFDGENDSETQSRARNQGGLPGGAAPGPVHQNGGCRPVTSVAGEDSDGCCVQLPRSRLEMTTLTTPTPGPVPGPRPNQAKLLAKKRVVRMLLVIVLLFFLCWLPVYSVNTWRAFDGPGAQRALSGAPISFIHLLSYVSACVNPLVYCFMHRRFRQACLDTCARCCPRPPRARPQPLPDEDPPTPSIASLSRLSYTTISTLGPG
pIC50: −log10 of the molar value.
Entries and their pIC50

[
  {
    "COMPOUND": "CC(C)(C)CC(=O)N[C@@H](Cc1c[nH]c2ccccc12)C(=O)N[C@@H]1CCCN2C(=O)N(Cc3ccccc3)C(=O)CC12 (single isomer, unassigned)",
    "pIC50": "< 5.00"
  },
  {
    "COMPOUND": "CC(C)(C)OC(=O)N[C@@H](Cc1c[nH]c2ccccc12)C(=O)N[C@H]1CCCN2C(=O)N(Cc3ccccc3)C(=O)C[C@@H]12",
    "pIC50": 5.21
  },
  {
    "COMPOUND": "CC(C)(C)OC(=O)N[C@H](CN[C@@H]1CCCN2C(=O)N(Cc3ccccc3)C(=O)C[C@H]12)Cc1c[nH]c2ccccc12",
    "pIC50": "< 5.00"
  },
  {
    "COMPOUND": "N#C[C@H](N[C@@H]1CCCN2C(=O)N(Cc3ccccc3)C(=O)C[C@H]12)[C@H](Cc1c[nH]c2ccccc12)NC(=O)OCc1ccccc1",
    "pIC50": "< 5.00"
  },
  {
    "COMPOUND": "CC(C)(C)OC(=O)N1Cc2[nH]c3ccccc3c2CC1C(=O)N[C@H]1CCCN2C(=O)N(Cc3ccccc3)C(=O)C[C@@H]12 (stereo partly specified)",
    "pIC50": "< 5.00"
  },
  {
    "COMPOUND": "CC(C)(C)OC(=O)N[C@@H](Cc1c[nH]c2ccccc12)C(=O)N[C@@H]1CCCN2C(=O)N(Cc3ccccc3)C(=O)CC12 (single isomer, unassigned)",
    "pIC50": "< 5.00"
  }
]
